Target: rat α1β2γ2L type GABAA receptors expressed in Xenopus laevis oocytes (Rattus norvegicus, UniProt P62813+P63138)
Construct: expressed in transfected cells; host or cells: Xenopus laevis oocytes
Sequence (P62813 28-455): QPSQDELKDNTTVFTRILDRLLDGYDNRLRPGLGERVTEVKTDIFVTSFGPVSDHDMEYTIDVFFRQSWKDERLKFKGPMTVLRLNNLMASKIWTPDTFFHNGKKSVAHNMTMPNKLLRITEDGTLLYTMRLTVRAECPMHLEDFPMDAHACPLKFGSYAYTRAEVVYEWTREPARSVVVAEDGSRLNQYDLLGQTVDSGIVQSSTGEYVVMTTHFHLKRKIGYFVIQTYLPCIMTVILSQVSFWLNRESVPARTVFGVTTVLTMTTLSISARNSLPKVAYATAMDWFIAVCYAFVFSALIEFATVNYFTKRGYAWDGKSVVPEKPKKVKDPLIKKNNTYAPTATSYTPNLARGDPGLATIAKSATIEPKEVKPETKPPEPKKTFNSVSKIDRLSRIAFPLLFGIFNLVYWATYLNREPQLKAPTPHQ
Sequence (P63138 26-474): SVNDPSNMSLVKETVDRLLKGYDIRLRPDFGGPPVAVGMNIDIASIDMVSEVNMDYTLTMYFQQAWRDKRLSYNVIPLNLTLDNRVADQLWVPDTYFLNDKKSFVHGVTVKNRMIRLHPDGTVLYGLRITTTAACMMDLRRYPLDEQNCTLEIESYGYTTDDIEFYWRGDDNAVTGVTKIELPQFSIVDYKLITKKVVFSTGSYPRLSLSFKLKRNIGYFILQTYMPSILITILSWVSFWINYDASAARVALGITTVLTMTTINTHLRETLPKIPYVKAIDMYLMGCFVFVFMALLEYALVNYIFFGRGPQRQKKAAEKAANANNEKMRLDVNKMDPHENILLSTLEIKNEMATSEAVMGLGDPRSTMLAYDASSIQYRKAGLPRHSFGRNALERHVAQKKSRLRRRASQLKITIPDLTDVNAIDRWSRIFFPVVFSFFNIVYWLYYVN
Sequence (P18508 with tags, fused parts or gaps INS375LLRMFSFK partner): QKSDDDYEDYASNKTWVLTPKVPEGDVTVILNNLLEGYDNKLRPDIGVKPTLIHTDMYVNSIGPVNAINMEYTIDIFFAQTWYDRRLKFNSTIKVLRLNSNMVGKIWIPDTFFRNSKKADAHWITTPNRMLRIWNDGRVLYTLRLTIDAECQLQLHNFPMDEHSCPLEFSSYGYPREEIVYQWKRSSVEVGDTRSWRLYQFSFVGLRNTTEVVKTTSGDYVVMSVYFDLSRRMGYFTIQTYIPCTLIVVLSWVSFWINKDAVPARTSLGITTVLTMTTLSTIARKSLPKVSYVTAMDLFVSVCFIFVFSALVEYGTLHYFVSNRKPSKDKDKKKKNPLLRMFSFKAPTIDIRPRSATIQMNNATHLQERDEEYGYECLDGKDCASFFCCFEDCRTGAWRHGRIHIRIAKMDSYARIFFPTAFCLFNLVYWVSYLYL
Assay: Oocyte electrophysiology: potentiation of GABA-mediated chloride currents and direct gating
Assay type: cell-based
Settings: direct current gated by 10 μM compound in absence of GABA; ratio of compound only current/2 μM GABA current
Form field: oocyte electrophysiology (gating) 10 μM (one value per entry).

SMILES_CODE: COC[C@]12CC[C@@H](O)C[C@@H]1CC[C@H]1[C@@H]3CC[C@H]([N+](=O)[O-])[C@@]3(C)CC[C@@H]12
oocyte electrophysiology (gating) 10 μM: 0.11
//
SMILES_CODE: COC[C@]12CC[C@@H](O)C[C@@H]1CC[C@H]1[C@@H]3CC[C@H](C(=O)CO)[C@@]3(C)CC[C@@H]12
oocyte electrophysiology (gating) 10 μM: 0.09
//
SMILES_CODE: COC[C@]12CC[C@@H](O)C[C@@H]1CC[C@@H]1[C@@H]2CC[C@@]2(C)[C@H]1CC[C@@]21CO1
oocyte electrophysiology (gating) 10 μM: 0.14
//
SMILES_CODE: COC[C@]12CC[C@H](O)C[C@@H]1CC[C@H]1[C@@H]3CC[C@H](OC)[C@@]3(C)CC[C@@H]12
oocyte electrophysiology (gating) 10 μM: 0.02
//
SMILES_CODE: COC[C@]12CC[C@@H](O)C[C@@H]1CC[C@@H]1[C@@H]2CC[C@]2(C)C(=O)CC[C@@H]12
oocyte electrophysiology (gating) 10 μM: 0
//
SMILES_CODE: COC[C@]12CC[C@@H](O)CC1=CC[C@@H]1[C@@H]2CC[C@]2(C)[C@@H](OC)CC[C@@H]12
oocyte electrophysiology (gating) 10 μM: 0.08
